// provenance: patent US20240301052A1

Listed here: items and their measured Top (MFI).
Target: T1, human SLC34A2 (human, UniProt O95436 1-690)
T1 construct: whole, on cells; also called human solute carrier 34 A2; NaPi2b
T1 sequence (looked up): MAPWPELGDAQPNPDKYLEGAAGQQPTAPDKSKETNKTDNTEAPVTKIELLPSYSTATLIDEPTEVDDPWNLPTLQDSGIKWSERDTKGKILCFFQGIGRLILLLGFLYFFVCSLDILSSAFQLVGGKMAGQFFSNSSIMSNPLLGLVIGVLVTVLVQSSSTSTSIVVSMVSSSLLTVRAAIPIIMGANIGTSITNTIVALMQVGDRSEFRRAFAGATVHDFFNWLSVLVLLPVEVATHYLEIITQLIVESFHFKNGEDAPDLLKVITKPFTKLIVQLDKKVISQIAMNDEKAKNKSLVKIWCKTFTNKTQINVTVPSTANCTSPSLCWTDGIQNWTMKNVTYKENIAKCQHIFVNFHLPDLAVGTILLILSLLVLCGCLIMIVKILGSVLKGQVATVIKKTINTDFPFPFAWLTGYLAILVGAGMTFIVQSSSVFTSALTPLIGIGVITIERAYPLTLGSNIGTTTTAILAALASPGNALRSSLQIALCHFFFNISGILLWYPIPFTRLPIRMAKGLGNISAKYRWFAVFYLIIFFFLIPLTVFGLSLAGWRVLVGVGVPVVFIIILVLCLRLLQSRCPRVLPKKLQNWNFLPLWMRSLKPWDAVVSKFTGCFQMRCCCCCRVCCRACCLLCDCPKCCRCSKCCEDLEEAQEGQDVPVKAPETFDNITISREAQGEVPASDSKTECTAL
Assay: FACS, HEK293/human SLC34A2 cells
Write down the numeric answer in MFI and omit the unit.

1) xi55E5B6D12 hIgG1 (antibody, V domains shown, chimeric, hIgG1) VH: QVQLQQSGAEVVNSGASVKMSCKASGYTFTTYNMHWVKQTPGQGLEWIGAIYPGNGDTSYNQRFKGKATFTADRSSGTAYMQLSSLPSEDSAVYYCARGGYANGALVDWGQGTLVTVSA VL: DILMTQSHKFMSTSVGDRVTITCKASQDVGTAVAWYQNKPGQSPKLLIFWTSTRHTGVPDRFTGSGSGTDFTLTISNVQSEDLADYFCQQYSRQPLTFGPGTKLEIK; 115000

Entry xi16E5D10 hIgG1 (antibody, V domains shown, chimeric, hIgG1) VH: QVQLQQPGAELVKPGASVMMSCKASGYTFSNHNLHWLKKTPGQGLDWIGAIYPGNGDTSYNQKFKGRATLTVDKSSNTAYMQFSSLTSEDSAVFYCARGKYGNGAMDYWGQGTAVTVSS VL: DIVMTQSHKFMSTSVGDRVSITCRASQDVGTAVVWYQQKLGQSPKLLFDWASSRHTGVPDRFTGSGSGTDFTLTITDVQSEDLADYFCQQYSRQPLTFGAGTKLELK — recorded Top (MFI) = 47500

Entry xi18G1H4 hIgG1 (antibody, V domains shown, chimeric, hIgG1) VH: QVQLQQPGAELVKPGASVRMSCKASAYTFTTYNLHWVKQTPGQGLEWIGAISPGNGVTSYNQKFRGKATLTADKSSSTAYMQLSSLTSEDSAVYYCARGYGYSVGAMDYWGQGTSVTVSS VL: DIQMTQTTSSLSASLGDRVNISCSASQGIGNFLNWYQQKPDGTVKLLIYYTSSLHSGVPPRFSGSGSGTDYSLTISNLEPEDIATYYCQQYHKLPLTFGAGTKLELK — recorded Top (MFI) = 106000

Entry xi25B11B9 hIgG1 (antibody, V domains shown, chimeric, hIgG1) VH: DVKLVESGGGLVRLGGSLKLSCAASGFTFSSHYMSWVRQTPKKRLELVATINSSGGNTYYPDTVKGRFTISRDNARNTLFLQMTSLKSEDTALYYCARQPINTVAYFDYWGQGTTLTVSS VL: DIVMTQSHEFMSTSVGARVSITCKASQDLTTAVAWYQQKPGQSPKLLIYWASTRHIGVPDRFTGSGSGADYTLTISSVQAEDLALYYCQQYHSTPLTFGAGTKLELK — recorded Top (MFI) = 106000

Entry xi62G10E4G8 hIgG1 (antibody, V domains shown, chimeric, hIgG1) VH: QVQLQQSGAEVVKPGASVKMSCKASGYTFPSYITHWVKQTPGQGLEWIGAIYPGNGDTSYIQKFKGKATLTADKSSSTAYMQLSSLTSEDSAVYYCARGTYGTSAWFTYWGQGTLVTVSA VL: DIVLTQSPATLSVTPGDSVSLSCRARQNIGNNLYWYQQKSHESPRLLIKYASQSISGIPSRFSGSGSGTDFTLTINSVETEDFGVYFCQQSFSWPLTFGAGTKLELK — recorded Top (MFI) = 101000
